# credit: patent US7183268B2

System: Stationary HFF cells
Test: Cytotoxicity in stationary HFF cells (microscopic inspection)
Type: cell-based, human
Details: Homo sapiens
observable: IC50

May I ask what IC50 has been recorded for Nc1nc(O)c2ncn(COC(CO)CO)c2n1 [Ganciclovir, reference compound] ?
> 100 µM

###

Test system: HSV-1
Experiment: HSV-1 ELISA in BSC-1 cells
Format: cell-based
observable: IC50 (µM)
Could you give me the number in µM? Just the number is fine.

// worked examples, IC50 included
[[record]]
compound = "C=CCOc1nc(N)nc2c1ncn2/C=C1/C[C@@H]1CO [Compound 14]"
system_under_test = "HSV-1"
value_measured = 1.5

[[record]]
compound = "CCCOc1nc(N)nc2c1ncn2/C=C1/C[C@@H]1CO [Compound 13a]"
system_under_test = "HSV-1"
value_measured = 1

[[record]]
compound = "CCCCCSc1nc(N)nc2c1ncn2/C=C1/C[C@@H]1CO [Compound 16b]"
system_under_test = "HSV-1"
value_measured = 7

[[record]]
compound = "C#CCNc1nc(N)nc2c1ncn2/C=C1/C[C@@H]1CO [Compound 7]"
system_under_test = "HSV-1"
value_measured = 6

[[record]]
compound = "Nc1nc(NCc2ccccc2)c2ncn(/C=C3/C[C@@H]3CO)c2n1 [Compound 10]"
system_under_test = "HSV-1"
value_measured = 25


May I ask what IC50 has been recorded for CCCCCOc1nc(N)nc2c1ncn2/C=C1/C[C@@H]1CO [Compound 13b] ?
7

May I ask what IC50 has been recorded for CCCSc1nc(N)nc2c1ncn2/C=C1/C[C@@H]1CO [Compound 16a] ?
1

May I ask what IC50 has been recorded for CC(C)Nc1nc(N)nc2c1ncn2/C=C1/C[C@@H]1CO [Compound 9] ?
15

May I ask what IC50 has been recorded for Nc1ncc2ncn(/C=C3/C[C@@H]3CO)c2n1 [Compound 18] ?
35
